activity at 100 µM reference
# measurement_target: human ABHD12 (Homo sapiens)
# Construct: expressed in transfected cells; host or cells: HEK293T (transient transfection; membrane fraction)
# Sequence (Q8N2K0 whole entry): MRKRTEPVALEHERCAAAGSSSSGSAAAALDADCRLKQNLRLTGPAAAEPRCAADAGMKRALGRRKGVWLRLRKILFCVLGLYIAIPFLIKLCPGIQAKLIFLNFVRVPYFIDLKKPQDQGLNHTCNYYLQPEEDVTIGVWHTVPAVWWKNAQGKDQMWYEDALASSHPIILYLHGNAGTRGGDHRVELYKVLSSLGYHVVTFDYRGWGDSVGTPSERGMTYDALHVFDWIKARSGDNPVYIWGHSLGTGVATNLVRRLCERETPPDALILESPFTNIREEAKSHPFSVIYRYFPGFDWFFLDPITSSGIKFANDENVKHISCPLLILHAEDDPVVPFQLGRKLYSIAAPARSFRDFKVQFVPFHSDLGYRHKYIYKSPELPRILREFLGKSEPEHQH
# measurement_protocol: ABHD12 activity by competitive ABPP with FP-TAMRA
# Assay type: biochemical
# condition_set: 100 µM compound; competitive ABPP with probe FP-TAMRA (250 nM); read-out: ABHD12 Inhibition (%)
The reply should contain only the number, in %.

Qu. Sample CC1(C)O[C@H]2CC(=O)OC[C@]23[C@H]2CC[C@@]4(C)[C@H](c5ccoc5)OC(=O)[C@H]5O[C@]54[C@]2(C)C(=O)C[C@@H]13 [compound 46, Limonin] — what was its activity at 100 µM?
Ans. 83.1
